TARGET: alkaline phosphatase (Bos taurus, UniProt P19111)
Sequence (P19111 20-506 limits assumed): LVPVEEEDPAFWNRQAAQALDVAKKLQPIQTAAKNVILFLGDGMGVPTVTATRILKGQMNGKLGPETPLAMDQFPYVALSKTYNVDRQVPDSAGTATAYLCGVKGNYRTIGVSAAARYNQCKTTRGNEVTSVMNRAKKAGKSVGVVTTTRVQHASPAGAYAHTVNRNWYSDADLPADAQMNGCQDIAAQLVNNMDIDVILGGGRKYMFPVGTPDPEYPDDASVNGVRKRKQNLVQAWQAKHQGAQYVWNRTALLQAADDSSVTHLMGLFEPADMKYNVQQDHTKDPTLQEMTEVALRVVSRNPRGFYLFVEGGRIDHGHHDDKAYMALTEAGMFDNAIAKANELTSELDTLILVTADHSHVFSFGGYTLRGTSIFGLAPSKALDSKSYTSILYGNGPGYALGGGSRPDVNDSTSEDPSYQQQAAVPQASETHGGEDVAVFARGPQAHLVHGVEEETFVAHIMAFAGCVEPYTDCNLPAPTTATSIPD
METHOD DESCRIPTION: Effect of peroxidase enhancers on observed alkaline phosphatase activity in dioxetane formulation containing PBTBQ
Format: biochemical
RUN PARAMETERS: 33.3 pg alkaline phosphatase; 30 minutes; net signal relative to control solution (CDP-Star plus Nitroblock II) set to 100%
RECORDED METRIC: Response, Percent (%)

# count of solved cases: 4
{"MOLECULE": "O=S(=O)([O-])CCCCN1c2ccccc2Sc2ccc(Cl)cc21.[Na+] [ws-PT—N—C4S—C2—Cl]", "TARGET": "alkaline phosphatase (Bos taurus, UniProt P19111)", "UNIT TEXT": "%", "Response, Percent": 218}
{"MOLECULE": "O=C(O)CCCN1c2ccccc2Sc2ccccc21 [CPPT, 4-(phenothiazin-10-yl)butanoic acid]", "TARGET": "alkaline phosphatase (Bos taurus, UniProt P19111)", "UNIT TEXT": "%", "Response, Percent": 104}
{"MOLECULE": "O=S(=O)([O-])CCCN1c2ccccc2Sc2ccccc21.[Na+] [ws-PT]", "TARGET": "alkaline phosphatase (Bos taurus, UniProt P19111)", "UNIT TEXT": "%", "Response, Percent": 207}
{"MOLECULE": "C[N+](C)(C)CCCN1c2ccccc2Sc2ccccc21.[Cl-] [ws-PT Plus (MPA^+Cl^−)]", "TARGET": "alkaline phosphatase (Bos taurus, UniProt P19111)", "UNIT TEXT": "%", "Response, Percent": 70}

I = C[N+](C)(C)CCCN1c2ccccc2Sc2ccc(Cl)cc21.[Br-] [ws-PT Plus (CP—Br^−)]
II = CN1c2ccccc2Sc2ccccc21 [MPT, 10-methyl-10H-phenothiazine]
Sort I and II by Response, Percent descending and give the first. State your choice using its label. II
